target: T1, AFP158/HLA-A*02:01 complex (human); assay: SPR, scFv captured, pMHC in flow;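 note: complex injected at several concentrations over crude scFv, association then running-buffer dissociation, KD estimated from kinetic on- and off-rate constants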
T1 construct: flowed over the chip in SPR; also called AFP158 pro
Some binders, each annotated with its measured Kd.
property label: Kd

[[record]]
binder = "HP110G (scFv, AS170036 VL1VH1 scFv mutein) scFv: QSALTQPRSVSGSPGQSVTISCAGTSSDVGSENYVSWYQQHPGKAPKLMIYQVNKRASGVPDRFSGSKSGNTASLTISGLQAEDEADYYCASYRSSDHNIVFGGGTKLTVLGGGGSGGGGSGGGGSEVQLVESGGGLVQPGGSLRLSCAASGFTFSSYAMSWVRQAPGKGLEWVSTINSGTGSPYYADSVKGRFTISRDNSKNTLYLQMNSLRAEDTAVYYCAKNFFDGSWFLGPGAMDYWGQGTLVTVSSHHHHHH"
endpoint_result = "260 nM"

[[record]]
binder = "HF101W (scFv, AS170036 VL1VH1 scFv mutein) scFv: QSALTQPRSVSGSPGQSVTISCAGTSSDVGSENYVSWYQQHPGKAPKLMIYQVNKRASGVPDRFSGSKSGNTASLTISGLQAEDEADYYCASYRSSDHNIVFGGGTKLTVLGGGGSGGGGSGGGGSEVQLVESGGGLVQPGGSLRLSCAASGFTFSSYAMSWVRQAPGKGLEWVSTINSGTGSPYYADSVKGRFTISRDNSKNTLYLQMNSLRAEDTAVYYCAKNFWDGSWFLGPPAMDYWGQGTLVTVSSHHHHHH"
endpoint_result = "300 nM"

[[record]]
binder = "HS57N (scFv, AS170036 VL1VH1 scFv mutein) scFv: QSALTQPRSVSGSPGQSVTISCAGTSSDVGSENYVSWYQQHPGKAPKLMIYQVNKRASGVPDRFSGSKSGNTASLTISGLQAEDEADYYCASYRSSDHNIVFGGGTKLTVLGGGGSGGGGSGGGGSEVQLVESGGGLVQPGGSLRLSCAASGFTFSSYAMSWVRQAPGKGLEWVSTINSGTGNPYYADSVKGRFTISRDNSKNTLYLQMNSLRAEDTAVYYCAKNFFDGSWFLGPPAMDYWGQGTLVTVSSHHHHHH"
endpoint_result = "170 nM"

